Test system: Mycobacterium tuberculosis
Assay: Antitubercular activity against Mycobacterium tuberculosis H37Rv ATCC 27294 after 7 days by microplate alamar blue assay
Type: functional
Conditions: H37Rv ATCC 27294, 168 h
PROPERTY LABEL: MIC (µM)
Give the value, in units of µM, as a plain number.

Solved cases (4 shown):
[
  {
    "COMPOUND": "C[C@H]1[C@H](C)CC[C@]2(C(=O)O)CC[C@]3(C)C(=CC[C@@H]4[C@@]5(C)CC[C@H](O)C(C)(C)[C@@H]5CC[C@]43C)[C@H]12",
    "TESTED ON": "Mycobacterium tuberculosis",
    "MIC / µM": 94.8
  },
  {
    "COMPOUND": "CC(C)[C@@H](C)/C=C/[C@@H](C)[C@H]1CC[C@@H]2[C@]1(C)CC[C@H]1[C@]23C=C[C@]2(C[C@@H](O)CC[C@]12C)OO3 [ERGOSTEROL PEROXIDE]",
    "TESTED ON": "Mycobacterium tuberculosis",
    "MIC / µM": 3.5
  },
  {
    "COMPOUND": "CC(=O)O[C@H]1CC[C@]23C[C@]24CC[C@]2(C)[C@@H]([C@H](C)CCC(=O)C(C)C)CC[C@@]2(C)[C@@H]4CC[C@H]3[C@]1(C)C(=O)O",
    "TESTED ON": "Mycobacterium tuberculosis",
    "MIC / µM": 9.9
  },
  {
    "COMPOUND": "CC(=O)O[C@H]1CC[C@]2(C)[C@H]3CC=C4[C@H]5[C@](C(=O)O)(CC[C@@H](C)[C@@]5(C)O)CC[C@@]4(C)[C@]3(C)C[C@@H](O)[C@H]2C1(C)C",
    "TESTED ON": "Mycobacterium tuberculosis",
    "MIC / µM": 75.5
  }
]

Now consider the entry below.
## Task Form entry - test system: Mycobacterium tuberculosis; read-out: MIC; compound: "CC(=O)O[C@@H]1CC[C@@]2(C)[C@@H](CC[C@]3(C)[C@@H]2CC=C2[C@@H]4CC(C)(C)CC[C@]4(C)CC[C@]23C)[C@@]1(C)C(=O)O"
## Result 94.8
